Taken from PubChem BioAssay (Tox21).

Experiment: qHTS assay to identify small molecule antagonists of the estrogen receptor alpha (ER-alpha) signaling pathway using the BG1 cell line (AID 743080);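 note: BG1 cells stimulated with 17beta-estradiol alongside compound; nearly all actives have a fitted effect of over 25% in size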
Conditions: BG1Luc4E2 ERE-luciferase antagonist mode, luminescence; series mostly up to 70.3 µM
Results filed as inconclusive are left out. Activity calls are given as the source filed them. Calls come from the whole dose curve.
Outcomes: true (1) (active), false (0) (inactive)

INSERT INTO results (molecule, category) VALUES
  ('Cc1c(C(=O)NN2CCCCC2)nn(-c2ccc(Cl)cc2Cl)c1-c1ccc(Cl)cc1', 'false (0)'),
  ('Nc1ccc(S(=O)(=O)O)cc1', 'false (0)'),
  ('OCCSc1ccccc1', 'false (0)'),
  ('CC(=O)Oc1ccc(C(=C2CCCCC2)c2ccc(OC(C)=O)cc2)cc1', 'false (0)'),
  ('CC(CCO)CCc1ccccc1 (stereo not drawn)', 'false (0)'),
  ('Cc1ccc(S(=O)(=O)NC2CCCCC2)cc1', 'true (1)'),
  ('O=C(O)c1cccnc1C(=O)O', 'false (0)'),
  ('Cc1cc(O)c(C(C)C)cc1Cl', 'false (0)');

====

Target: Cytochrome P450 1A2 (Homo sapiens) (UniProt P05177)
Sequence (P05177 whole entry, looked up): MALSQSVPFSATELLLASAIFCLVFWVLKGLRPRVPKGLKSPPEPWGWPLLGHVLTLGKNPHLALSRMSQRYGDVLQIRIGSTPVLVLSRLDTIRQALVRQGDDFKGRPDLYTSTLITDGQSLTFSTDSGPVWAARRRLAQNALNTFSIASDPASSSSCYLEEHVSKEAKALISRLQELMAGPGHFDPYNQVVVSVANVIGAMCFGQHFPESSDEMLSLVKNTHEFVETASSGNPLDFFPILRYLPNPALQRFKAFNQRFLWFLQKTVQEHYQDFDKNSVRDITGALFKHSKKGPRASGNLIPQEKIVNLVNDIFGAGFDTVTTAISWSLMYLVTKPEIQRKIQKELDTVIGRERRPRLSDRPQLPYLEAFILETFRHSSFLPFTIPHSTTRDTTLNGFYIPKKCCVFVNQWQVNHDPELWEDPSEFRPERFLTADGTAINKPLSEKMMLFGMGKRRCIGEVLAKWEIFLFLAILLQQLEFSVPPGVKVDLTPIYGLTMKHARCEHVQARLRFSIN
Test: Cytochrome P450 Family 1 Subfamily A Member 2 (CYP1A2) small molecule antagonists: luciferase reporter qHTS assay (AID 1671199); note: nearly all actives have a fitted effect of over 50% in size
Settings: P450-Glo CYP1A2 enzyme, luciferin luminescence, 1 h; series mostly up to 53 µM
Results filed as inconclusive are left out. The source made the active and inactive calls. Calls follow the shape of the dose curve; as a rule, active = well fitted inhibition curve with a large enough effect in the repeat runs; inconclusive = weak or mixed curves; inactive = no such curve, though single readings can be large or run the other way.
Classes used: active, inactive

INSERT INTO measurements (compound, category) VALUES
  ('CSc1ccc(Oc2ccc(S(N)(=O)=O)cc2CN(C)C)cc1C', 'active'),
  ('CC(CCc1ccc2c(c1)OCO2)NN (stereo unspecified)', 'active'),
  ('Cc1oc(C)c(C(=O)Nc2ccccc2)c1C', 'active'),
  ('N#C/C(=C1/SC[C@@H](c2ccc(Cl)cc2Cl)S1)n1ccnc1', 'active'),
  ('CC(C)c1nnc2ccc(-c3ocnc3-c3cc(F)ccc3F)cn12', 'active'),
  ('O=C(O)Cc1ccc(-c2ccccc2)cc1', 'inactive');

====

Experiment: A CellTox Green Cytotoxicity Assay to monitor cytotoxicity in HEK293 cells - 8 hour (AID 1224884); note: nearly all actives have a fitted effect of over 35% in size
Conditions: CellTox Green fluorescence; series mostly up to 76.8 µM
Excerpt: National Center for Advancing Translational Sciences [NCATS] NIH Chemical Genomics Center [NCGC] U.S. Environmental Protection Agency [EPA] National Institutes of Environmental Health Sciences [NIEHS] National Toxicology Program [NTP] Cell-based models are critical for drug discovery. […] Viable cells produce no appreciable increases in fluorescence. Therefore, the fluorescence signal produced by the binding interaction with dead cell DNA is proportional to cytotoxicity. […]
Inconclusive results are not listed. The source made the active and inactive calls. Calls follow the shape of the dose curve; as a rule, active = well fitted activation curve with a large enough effect in the repeat runs; inconclusive = weak or mixed curves; inactive = flat fitted curve, though single readings scatter.
Outcomes: YES = active, NO = inactive

INSERT INTO measurements (compound, category) VALUES
  ('COCc1c(C(C)C)nc(C(C)C)c(/C=C/[C@@H](O)C[C@@H](O)CC(=O)O)c1-c1ccc(F)cc1', 'NO'),
  ('ON(Cc1ccccc1)Cc1ccccc1', 'NO'),
  ('CCCCCCCCCOC(C)=O', 'NO'),
  ('COC(=O)c1cc(Cl)ccc1NS(=O)(=O)C(F)(F)F', 'NO'),
  ('CC(=O)Nc1ccccc1C', 'NO'),
  ('NC(=O)N(O)[C@@H]1COc2cc(OCc3ccccc3)ccc21', 'NO'),
  ('Cc1cc(OI)c(C(C)C)cc1-c1cc(C(C)C)c(OI)cc1C', 'NO'),
  ('COc1cc2c(cc1OC)-c1cc(=Nc3c(C)cc(C)cc3C)n(C)c(=O)n1CC2', 'NO'),
  ('CC(CCO)CCc1ccccc1 (stereo not drawn)', 'NO'),
  ('CCc1c2c(nc3ccc(OC(=O)N4CCC(N5CCCCC5)CC4)cc13)-c1cc3c(c(=O)n1C2)COC(=O)[C@]3(O)CC', 'NO'),
  ('CC1C2CC(CC2C2CCCC(O)C2)C1(C)C (stereo not drawn)', 'YES'),
  ('O=[N+]([O-])c1cccc(S(=O)(=O)NCCNS(=O)(=O)c2cccc([N+](=O)[O-])c2)c1', 'NO'),
  ('CC(=O)OCC(=O)[C@H]1CC[C@H]2[C@@H]3CCC4=CC(=O)CC[C@]4(C)[C@H]3CC[C@]12C', 'NO'),
  ('CCCCC(=O)O[C@]1(C(=O)CO)[C@@H](C)C[C@H]2[C@@H]3CCC4=CC(=O)C=C[C@]4(C)[C@@]3(F)[C@@H](O)C[C@@]21C', 'NO'),
  ('CC1CC(=O)NN=C1c1ccc(NCC(C)(C)NCC(O)COc2cc(Cl)ccc2C#N)cc1 (stereo not drawn)', 'NO'),
  ('O=C(c1ccc(O)cc1)c1ccc(Cl)cc1', 'NO'),
  ('COc1cc2ncnc(Nc3ccc(F)c(Cl)c3)c2cc1OCCCN1CCOCC1', 'NO'),
  ('CC1=CC(O)CC(C)(C)C1 (stereo not drawn)', 'NO'),
  ('C[N+](C)(C)CCOC(N)=O', 'NO'),
  ('NC(=O)N(O)[C@@H]1C=C[C@H](Oc2cccc(Oc3ccc(F)cc3)c2)C1', 'NO'),
  ('Oc1cc(O)c(Cl)cc1Cl', 'NO'),
  ('CN1CCN(CCCN2c3ccccc3Sc3ccc(S(=O)(=O)N(C)C)cc32)CC1', 'NO'),
  ('C/C(=N/NC(=O)c1ccncc1)C(=O)O', 'NO'),
  ('Cc1oc(C)c(C(=O)Nc2ccccc2)c1C', 'NO'),
  ('CC1(C)C(=O)N(Br)C(=O)N1Cl', 'NO'),
  ('C[C@@H]1C[C@H]2[C@@H]3CCC4=CC(=O)C=C[C@]4(C)[C@@]3(F)[C@@H](O)C[C@]2(C)[C@@]1(O)C(=O)CO', 'NO'),
  ('O=C(O)c1cccc(O)c1', 'NO'),
  ('O=C(CCC1CCN(Cc2ccccc2)CC1)c1ccc2c(c1)NCCCC2', 'NO'),
  ('COC(OC)(C(=O)c1ccccc1)c1ccccc1', 'NO'),
  ('CCc1nn(CCCN2CCN(c3cccc(Cl)c3)CC2)c(=O)n1CCOc1ccccc1', 'NO'),
  ('COC(=O)CC(=O)C(C)(C)C', 'NO'),
  ('CC1(C)O[C@@H]2C[C@H]3[C@@H]4CCC5=CC(=O)C=C[C@]5(C)[C@H]4[C@@H](O)C[C@]3(C)[C@]2(C(=O)CO)O1', 'NO'),
  ('CCOC(=O)C(C)Oc1ccc(Oc2nc3ccc(Cl)cc3o2)cc1 (stereo not drawn)', 'NO'),
  ('CCC(=O)OC/C=C/c1ccccc1', 'NO'),
  ('CCCOCCOCCO', 'NO'),
  ('O=C(C(=O)c1ccccc1)c1ccccc1', 'NO'),
  ('CSc1ccc(Oc2ccc(S(N)(=O)=O)cc2CN(C)C)cc1C', 'NO'),
  ('CC(=O)[C@H]1CC[C@H]2[C@@H]3C=CC4=CC(=O)CC[C@@]4(C)[C@@H]3CC[C@]12C', 'NO'),
  ('CC#N', 'NO'),
  ('CCOC(=O)OCC', 'NO'),
  ('CCCCC1C(=O)N(c2ccccc2)N(c2ccc(O)cc2)C1=O (stereo not drawn)', 'NO'),
  ('Cc1nc2ccccc2s1', 'NO'),
  ('OCC1CC=CCC1 (stereo not drawn)', 'NO'),
  ('COc1cc2[nH]c(=O)[nH]c(=O)c2cc1OC', 'NO'),
  ('C=CCNc1nc(NCC=C)nc(N2CCN(C(c3ccc(F)cc3)c3ccc(F)cc3)CC2)n1', 'NO'),
  ('CCCCN(CCCC)C(=S)SSC(=S)N(CCCC)CCCC', 'NO'),
  ('CCC(C)(O)CCC=C(C)C (stereo not drawn)', 'NO'),
  ('CCOC(=O)[C@@H](C)Oc1ccc(Oc2nc3ccc(Cl)cc3o2)cc1', 'NO');
